Test system: CD2F1 mice, L1210 leukemia ip, survival T/C
Measurement Description: NCI In Vivo Anticancer Drug Screen. Data for tumor model L1210 Leukemia (intraperitoneal) in CD2F1 (CDF1) mice
Applied Conditions: endpoint: mean survival time; dose: 25.0 mg/kg/injection; schedule: Q01DX009 (ip); vehicle: Klucel (hydroxypropylcellulose) (HPC); higher = longer survival
Inconclusive results and toxic doses are left out.
Exercise: state measured T/C for each of the molecules provided.

Answered examples (4):
>>> df
                                   molecule                           measured_target  assay_readout   reported_result
0         CCCCn1c(C)nc2c(N)cc(C(F)(F)F)cc21  CD2F1 mice, L1210 leukemia ip, survival T/C            T/C   91 % of control
1                CCCCCCCCCCCC[N+]1(C)CCOCC1  CD2F1 mice, L1210 leukemia ip, survival T/C            T/C   98 % of control
2  Cc1cc(NC(=O)CCc2ccc(N)cc2)ccc1S(=O)(=O)F  CD2F1 mice, L1210 leukemia ip, survival T/C            T/C  110 % of control
3  CC(=O)NC(CC(=O)O)C(=O)NNC(=O)c1ccccc1O (centres undefined)  CD2F1 mice, L1210 leukemia ip, survival T/C            T/C  108 % of control

// batch mode: one T/C value per listed entry
1. ClC1CCCC[N-]1.ClC1CCCC[N-]1.[Cl][Pt+2][Cl] (centres undefined)
2. CCOC(=O)Nc1cc2c(c(N)n1)N=C(c1ccc(Cl)cc1)CN2
3. CC1(C)CC2(OC2c2ccccc2)C(=O)c2ccccc21 (centres undefined)
4. Cc1ccc(S(=O)(=O)N/N=C/c2ccncc2)cc1
5. CCOC(=O)C(=O)c1c(N)n(C)c(=O)n(C)c1=O

Response given:
1: 100 % of control; 2: 110 % of control; 3: 92 % of control; 4: 104 % of control; 5: 102 % of control

All values here come from PubChem BioAssay AID256.
